- Test system: SNB-19 CNS
- Procedure summary: NCI-60 one-dose screen, 48 h
- Conditions used: 10 µM unless noted
About 83,000 compounds went through this panel and 20% of them were active in at least one assay; those are over-represented in the sample as a whole. Active and inactive are the calls of the source. The calls were made as follows: active = growth percent below 10; inactive = the rest.
// allowed return values: 1 (active), 0 (inactive)

Ask: Dear all, I need the recorded test outcome for CCOC(=O)/C(F)=C/C1CC1C1CCCCC1 (stereo not given) , thank you.
Reply: 0

Ask: Note, next up: Nc1nc(N)c2c(n1)NC(c1ccccc1)CC(c1ccc(Nc3nc(NCCO)nc(Nc4ccc(Cl)cc4)n3)cc1)=N2 (stereo not given)
Reply: 1

Ask: Input `Cc1cc(=O)n2nc(-c3c[nH]c4ccccc34)sc2n1`
Reply: 0

Ask: Again, but for `N#Cc1c(-c2ccccc2)cc(-c2c[nH]c3ccccc23)nc1-c1c[nH]c2ccccc12`
Reply: 0

Ask: Also check `O=C(CCCCCCN1CC(=O)N2[C@@H](c3ccc(Cl)c(F)c3)c3[nH]c4ccccc4c3C[C@H]2C1=O)NO`
Reply: 0
